# melting point listing for each entry below

>  <compound>
CCCN1C(=O)N2CCN=C2c2[nH]c(C3CCCC3)nc21

>  <melting point>
215 to 216 °C

$$$$
>  <compound>
COc1ccccc1N1CCN(Cc2c(C3CC3)nn(-c3ccccc3)c2N)CC1

>  <melting point>
70 to 74 °C

$$$$
>  <compound>
CC1Cc2cc3c(cc2C(C=Cc2cccc(Cl)c2)=NN1)OCO3 (stereo unspecified)

>  <melting point>
114 to 117 °C

$$$$

Qu. // returns reported melting point for input `CCOP(=O)(/C=C/c1cn(-c2ccccc2)nc1OCc1ccc(OCc2nc(-c3cccc(C#N)c3)oc2C)c(OC)c1)OCC`
Ans. 147 to 148 °C

Qu. Endpoint output: melting point of Fc1ccc(-c2ccn(C3CC4CCC(C3)N4)c2-c2ccncc2)cc1 (stereo unspecified) . Value?
Ans. 204 to 205 °C

Qu. Which melting point is listed for CCC=C(c1ccccc1N1CCCCC1)C(C(N)=O)c1ccc(C(=O)OCC)cc1 (stereo unspecified) ?
Ans. 115 to 117 °C

Qu. Form field: reported melting point of `Cn1c(C(F)(F)F)cc(=O)n(-c2ccc3snc(-c4sccc4CO)c3c2)c1=O`
Ans. 168 to 169 °C

Qu. Which value of melting point has been reported for CSc1ccc(CCOCCCCCC(C)NCC(O)c2ccc(O)c(NS(C)(=O)=O)c2)cc1 (stereo unspecified) in the records?
Ans. 133 to 138 °C

Qu. Give its melting point value. Item: CN(C)C(=O)N1CCSC1c1ccccc1OCCN1CCN(c2cccc(F)c2)CC1 (stereo unspecified)
Ans. 90.5 to 93 °C

Qu. Return reported melting point; argument: `CCCc1c(O)ccc(C(=O)OC)c1O`
Ans. 66 to 68 °C

---

attribute.measured: melting point

Here's what some known entries look like.
>  <test.smiles>
COc1ccc2c(c1)CN(CCc1ccc(N)cc1)CC2

>  <value.observed>
82 to 84 °C

$$$$
>  <test.smiles>
Clc1cc(-c2c(-c3ccccc3)nn3ccccc23)ccn1

>  <value.observed>
167 to 168 °C

$$$$
>  <test.smiles>
Cc1cc2nc(SCC(F)(F)F)[nH]c2cc1C

>  <value.observed>
150 to 163 °C

$$$$
>  <test.smiles>
CC(=O)Nc1ccc(F)c(N2CCN(C(C)=O)CC2)n1

>  <value.observed>
178 to 180 °C

$$$$
>  <test.smiles>
Cc1c(CN(C)C)cc(C(C)(C)CC(C)(C)C)c(O)c1C

>  <value.observed>
130 to 132 °C

$$$$

Moving on to the next compound.
Qu. Param item = `Cn1cc(C2=C(c3cn(CCCNS(=O)(=O)c4ccccc4)c4ccccc34)C(=O)NC2=O)c2ccccc21` ; retrieve measured melting point.
Ans. 125 to 128 °C

---

Readings of melting point for the listed molecules

The following molecules have reported results that may help.
>  <molecule>
CCOCCc1ccc(OCCN(C(=O)n2cncn2)c2ncnc3sc(CC)cc23)c(C)c1

>  <melting point>
129 to 131 °C

$$$$
>  <molecule>
COc1ccc2c(c1)c1c3c(c(-c4c(Cl)cccc4Cl)cc1n2CCO)C(=O)NC3=O

>  <melting point>
229 to 231 °C

$$$$
>  <molecule>
CN(C)CCNc1ccc(C=O)c2sc3ccc(O)cc3c(=O)c12

>  <melting point>
219 to 220 °C

$$$$

Qu. What measured melting point goes with CN(C)CC(O)Cn1c2ccccc2c2c3c(c4c5ccccc5n(C)c4c21)C(=O)N(C)C3=O (stereo unspecified) ?
Ans. 198 to 203 °C

Qu. What melting point value was documented for this molecule, O=C1N(CC2CN(Cc3ccccc3)CCO2)c2ccccc2C12COc1cc3c(cc12)OCCO3 (stereo unspecified) ?
Ans. 88 to 100 °C

Qu. Fill in the blank: the reported melting point of `CCOC(=O)COc1ccc(CCC(=O)OC)cc1[N+](=O)[O-]` is ____.
Ans. 70 to 72 °C

---

In this section we review reported melting point values for a set of compounds.

// below: answered compounds
>  <compound>
CC(C)C[C@H](NC(=O)[C@@H](S)Cc1ccccc1)C(=O)O

>  <melting point>
67 to 71 °C

$$$$
>  <compound>
NC(=O)C1CCN(c2ncncc2Cl)CC1

>  <melting point>
201 to 202 °C

$$$$
>  <compound>
Cn1cc(C(=O)c2ccccc2)c2c(Nc3cccc(N)c3)ncnc21

>  <melting point>
170 to 173 °C

$$$$
>  <compound>
COc1ccccc1CC(=O)N1C[C@@H]2SCCC(c3ccccc3)(c3ccccc3)[C@@H]2C1 (racemic)

>  <melting point>
172 °C

$$$$
>  <compound>
COc1ccc(-c2csc(Nc3ccncc3)n2)cc1OC

>  <melting point>
205 to 207 °C

$$$$

Qu. Given the entry `COc1cc(OCC(=O)O)cc2c1C(=O)CC1(CCCCC1)S2` , report its measured melting point.
Ans. 195 to 196 °C

Qu. Suppose we examine the compound `Cc1ccc(CCCO)c(NCc2ccc3nc(NCCCN4CCOCC4)n(Cc4cccc5cccnc45)c3c2)c1` ; what melting point value has been reported?
Ans. 165 °C

Qu. Data request, read-out melting point, for `COc1ccc(S(=O)(=O)N2CCC(N3N=C(c4ccc(OC)c(OC)c4)CCC3=O)CC2)cc1`
Ans. 197 to 198 °C

Qu. Reported melting point for `COc1cccc2cc(CNCCNC(=O)C34CC5CC(CC3C5)C4)oc12` : what is it?
Ans. 103 to 107 °C

---

attribute.measured: melting point

>  <test.smiles>
CCCc1nc(C)n2c(=O)[nH]nc2c1Cc1ccc(-c2ccccc2C#N)cc1

>  <melting point>
196 °C

$$$$
>  <test.smiles>
C#CCOc1cc(-n2c(=S)n3n(c2=S)COCC3)c(F)cc1Cl

>  <melting point>
167 to 169 °C

$$$$

Proceed to the following item.
Qu. Consider the molecule `CC(=O)Nc1nc(CCc2ccc(CN3CCN(C(=O)OC(C)(C)C)CC3)cc2)cs1` and give its measured melting point.
Ans. 140 to 141 °C

---

attribute.measured: melting point

Consider the reported melting point for these molecules:
>  <molecule>
CC(C)C1N(CC(N)=O)C(=O)CN1C(=O)CN (stereo not given)

>  <value.observed>
205 to 211 °C

$$$$
>  <molecule>
CCOC(=O)c1c2ccc(Cl)cc2c(-c2ccccc2)n1C1=CCC(=O)C=C1

>  <value.observed>
94 to 95 °C

$$$$
>  <molecule>
Oc1ccc2c(c1)COc1c-2cc2ccc(O)cc2c1-c1cccc(F)c1

>  <value.observed>
225 to 227 °C

$$$$
>  <molecule>
COc1cccc(Nc2nc(N)nc3c2-c2ccccc2C3)c1

>  <value.observed>
187 °C

$$$$
>  <molecule>
CC(Oc1ncn(-c2ccc(OC(F)(F)F)cc2)n1)C(=O)O (stereo not given)

>  <value.observed>
200 to 203 °C

$$$$
>  <molecule>
Fc1ccc(Nc2nc3ccccc3o2)cc1C(F)(F)F

>  <value.observed>
190 to 191 °C

$$$$

Now look at this one.
Qu. Dear colleague, I am looking for the recorded melting point of the following molecule: `O=c1ccc(-c2ccncn2)c[nH]1`
Ans. > 250 °C

---

attribute.measured: melting point

>  <compound>
N#Cc1ccc(-c2ccc3ccccc3c2)cc1Cn1cncn1

>  <value.observed>
119 to 121 °C

$$$$
>  <compound>
O=[N+]([O-])c1oc2ccc(CBr)cc2c1-c1ccccc1

>  <value.observed>
171 to 180 °C

$$$$
>  <compound>
CC[C@@H](c1ccccc1)N(Cc1ccc(S(C)(=O)=O)cc1)S(=O)(=O)c1ccc(Cl)cc1

>  <value.observed>
61 to 63 °C

$$$$
>  <compound>
CS(=O)(=O)c1ccc(-c2cnn(-c3ccc(F)c(F)c3)c(=O)c2-c2cccs2)cc1

>  <value.observed>
189 to 191 °C

$$$$

Next, consider the following compound.
Qu. Entry CS(=O)(=O)NC1CCC(=O)N2CCCC(C(=O)NC(CC(=O)O)C(=O)COc3cccnc3)N2C1=O (stereo not given) : reported melting point = ?
Ans. 120 to 125 °C

---

attribute.measured: melting point

Some solved entries appear below for comparison.
>  <compound>
CC(C)(C)n1ncc(C(N)=O)c1N

>  <value.observed>
193 to 195 °C

$$$$
>  <compound>
Cc1nc(-c2ccccc2)ncc1CN1CCN(c2ccc(O)cc2)CC1

>  <value.observed>
201 to 202 °C

$$$$
>  <compound>
CCCCNc1c(C(=O)OCC)c(C)nc2nccnc12

>  <value.observed>
56 to 58 °C

$$$$
>  <compound>
CCCCC1c2ccccc2-c2cc(Br)ccc2N1S(=O)(=O)c1ccc(OC)cc1 (stereo unspecified)

>  <value.observed>
108 to 111 °C

$$$$
>  <compound>
CCCN(CCC)Cc1coc(-c2ncn3c2CN(C)C(=O)c2ccccc2-3)n1

>  <value.observed>
109 to 110 °C

$$$$
>  <compound>
CS(=O)(=O)c1ccc(-c2cc(C#N)c(Br)nc2-c2ccc(F)cc2)cc1

>  <value.observed>
230 to 232 °C

$$$$
>  <compound>
CCOC(=O)C(=O)CC(=O)c1cn(Cc2ccc([N+](=O)[O-])cc2)c2ccccc2c1=O

>  <value.observed>
175 to 176 °C

$$$$
>  <compound>
CCCCOc1c(-c2ccc(S(C)(=O)=O)cc2)cnn(-c2ccc(F)c(F)c2)c1=O

>  <value.observed>
129 to 132 °C

$$$$
>  <compound>
COc1c(C(O)CNC(C)(C)Cc2c(C)cc(C)cc2C)ccc(O)c1O (stereo unspecified)

>  <value.observed>
98 to 105 °C

$$$$
>  <compound>
CCCCc1nc2cnc3cccnc3c2n1CCNC(=O)OC(C)(C)C

>  <value.observed>
198 to 199 °C

$$$$

Qu. Dear colleague, I am looking for the recorded melting point of the following compound: CN(C(=O)CN1C(=O)C(NC(=O)Nc2cccc(N)c2)N=C(CN2CCOCC2)c2ccccc21)c1ccccc1 (stereo unspecified)
Ans. 158 to 160 °C

Qu. Returns the measured melting point for the input compound. Input: `CCNC(=O)c1[nH]c2ccc(Cl)cc2c1S(=O)(=O)c1ccccc1`
Ans. 259 to 260 °C

Qu. Data request, read-out melting point, for COc1ccc(-c2ccncc2OC2SCC(O)C(O)C2O)cc1 (stereo unspecified)
Ans. 228 °C

Qu. I'd like to know its melting point. The compound in question is `Cc1csc2nc(C(=O)O)cn12`
Ans. 196 to 197 °C

Qu. Which measured melting point value corresponds to `COC(=O)c1oc(C(C)(C)C)cc1NC(=O)Nc1ccc(C)cc1` ?
Ans. 78 to 79 °C

Qu. # get_value(readout='melting point', item= CCCOC1CCC(=O)N1 (stereo unspecified) )
Ans. 52 to 54 °C

Qu. Item under review: CCC1CC2=CC(O)CCC2C2CCC3(C)C(O)CCC3C12 (stereo unspecified) . Reported melting point?
Ans. 93 to 95 °C

Qu. Item CC(C)(CSc1ccc(Cl)cc1)C(O)Cn1ccnc1 (stereo unspecified) has what recorded melting point?
Ans. 109 to 110 °C

Taken from a melting point compilation (Tetko et al.; mined from patent text by program, amines drawn as free bases though some values may be those of a salt).
